molecular target: NADPH oxidase 5 (Homo sapiens) (UniProt Q96PH1); experiment: NOX5-dependent H2O2 signal modulators, primary screen, NOX inhibitor project, cell-based, HEK293-NOX5, Amplex Red fluorescence (AID 1161); details: HEK293-NOX5, ionomycin, 45 min, higher = more signal
Sequence (Q96PH1 whole entry, looked up): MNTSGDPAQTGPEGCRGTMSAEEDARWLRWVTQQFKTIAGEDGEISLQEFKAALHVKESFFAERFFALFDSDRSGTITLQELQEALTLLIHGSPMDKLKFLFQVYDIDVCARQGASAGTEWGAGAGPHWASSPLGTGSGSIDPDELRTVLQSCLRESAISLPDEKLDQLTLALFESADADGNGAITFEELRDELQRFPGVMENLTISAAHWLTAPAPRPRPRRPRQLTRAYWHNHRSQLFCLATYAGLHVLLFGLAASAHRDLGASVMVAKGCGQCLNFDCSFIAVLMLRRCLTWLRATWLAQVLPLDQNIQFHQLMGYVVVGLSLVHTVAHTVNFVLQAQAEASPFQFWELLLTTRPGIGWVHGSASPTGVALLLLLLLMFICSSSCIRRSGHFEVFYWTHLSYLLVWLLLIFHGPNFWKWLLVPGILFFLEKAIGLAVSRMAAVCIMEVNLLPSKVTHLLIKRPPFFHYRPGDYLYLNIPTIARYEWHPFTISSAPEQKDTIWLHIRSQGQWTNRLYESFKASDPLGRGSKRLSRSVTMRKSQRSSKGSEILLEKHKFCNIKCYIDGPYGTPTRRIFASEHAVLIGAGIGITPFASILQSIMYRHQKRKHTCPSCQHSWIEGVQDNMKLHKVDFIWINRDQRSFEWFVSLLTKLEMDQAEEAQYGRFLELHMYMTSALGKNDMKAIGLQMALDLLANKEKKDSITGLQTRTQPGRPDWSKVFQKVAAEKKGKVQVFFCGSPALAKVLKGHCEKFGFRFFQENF
METRIC: z-score
One number for each entry.

Take each entry in turn and give its z-score.
1. COC(=O)CC=C[C@@H](C)[C@@H](C=NO[C@@H](C)c1cc(-c2c(C)cc(C)cc2C)no1)NS(=O)(=O)c1ccc(C)cc1
2. O=C1CCCC=C1C(O)CCOC(c1ccccc1)(c1ccccc1)c1ccccc1 (configuration not stated)
3. C[C@@H]1CC[C@H]2C(=O)O[C@@H](COc3ccc(C(C)(C)C)cc3)CN2[C@@H]1c1ccc(Br)cc1
4. Cn1c(=O)n2n(c1=O)[C@H]1[C@H](O)[C@@H]3O[C@@H]3C(=NOCc3ccccc3)[C@H]1CC2
5. CC(C)=NO[C@H](C)c1cn([C@H](CO)Cc2ccccc2)nn1
6. CC(CCN1CCCc2nc(C)c(C)cc21)=NO[C@@H](C)c1cc(-c2c(C)cc(C)cc2C)no1

**Result**
1: -1.47; 2: -0.832; 3: 0.154; 4: 0.632; 5: -0.281; 6: 0.221
